- System: L1210 leukemia ip in BDF1 mice, survival T/C
- ASSAY: NCI In Vivo Anticancer Drug Screen. Data for tumor model L1210 Leukemia (intraperitoneal) in B6D2F1 (BDF1) mice
- SETUP_CONDITIONS: endpoint: mean survival time; dose: 400.0 mg/kg/injection; schedule: Q04DX002 (ip); vehicle: Klucel (hydroxypropylcellulose) (HPC); higher = longer survival
Toxic doses and inconclusive results are not listed.
MEASURED_ENDPOINT: T/C

COMPOUND | T/C
OC(/N=C/c1ccccc1)C(Cl)(Cl)Cl (stereo unspecified) | 114 % of control

Query: Short answer please: T/C, L1210 leukemia ip in BDF1 mice, survival T/C, entry CCCCCCCCCCCCCOc1ccc(S(=O)(=O)/N=C(\N)NC(N)=NCCCCCCCCCCCC)cc1
Result: 86 % of control

Query: Same thing, different compound: CCOc1ccc(NC(=O)c2cc(C(=O)O)c(C(=O)Nc3ccc(OCC)cc3)cc2C(=O)O)cc1
Result: 109 % of control

Query: Same thing, different compound: CC(C)=NNC(=O)CNc1cccc(C(F)(F)F)c1
Result: 100 % of control

Query: Same thing, different compound: ClCCN=Cc1ccc(Cl)cc1
Result: 100 % of control

Query: Same thing, different compound: Cc1c(O)cc2c(c1O)C(=O)CC(c1ccc(O)cc1)O2 (stereo unspecified)
Result: 108 % of control

Query: Same thing, different compound: CCCCS(=O)(=O)N1CC(C)OC(C)C1 (stereo unspecified)
Result: 97 % of control

Query: Same thing, different compound: CC(=O)Nc1cccc(OC(=O)Nc2ccc(F)c(Cl)c2)c1
Result: 121 % of control

Query: Same thing, different compound: O=C(Nc1cccc(C(F)(F)F)c1)c1ccco1
Result: 104 % of control

Query: Same thing, different compound: COC1OC(CCl)C(OC(=O)c2ccccc2)C(OC(=O)c2ccccc2)C1OC(=O)c1ccccc1 (stereo unspecified)
Result: 104 % of control

Query: Same thing, different compound: O=C(N1CCC(CCCc2ccccc2)CC1)C(Cl)(Cl)Cl
Result: 100 % of control

* * *

- Tested on: L1210 leukemia ip in BDF1 mice, survival T/C
- ASSAY: NCI In Vivo Anticancer Drug Screen. Data for tumor model L1210 Leukemia (intraperitoneal) in B6D2F1 (BDF1) mice
- SETUP_CONDITIONS: endpoint: mean survival time; dose: 100.0 mg/kg/injection; schedule: Q04DX002 (ip); vehicle: saline; higher = longer survival
Inconclusive results and toxic doses are left out.
MEASURED_ENDPOINT: T/C

Field: example entries. Status: answers known.
MOLECULE | T/C
CCN(C)C(=O)Nc1ccc(N)cc1 | 101 % of control
Oc1ccccc1C=NCCN=Cc1ccccc1O.[Cu] | 99 % of control
CC1CN=C(c2ccc(O)c(O)c2)S1 (stereo not drawn) | 107 % of control
C1=NC(c2ccccc2)=CN(C2CCCCCCC2)C1(c1ccccc1)C1CCCCCCC1 (stereo not drawn) | 99 % of control
COc1cc2c(cc1OC)-c1cc3cc(OC)c(OC)cc3c(CCC(=O)O)[n+]1CC2 (tested in a mixture with another compound) | 117 % of control

Query: Which T/C value belongs to C/C=C/C=C/COC(=O)C=C(C)C ?
Result: 107 % of control

Query: Same thing, different molecule: CC(C)[CH2][Sn]([CH2]C(C)C)([CH2]C(C)C)[C](C)(C)C
Result: 94 % of control

Query: Same thing, different molecule: O=C1NC23CC=CCC12CCC3 (stereo not drawn)
Result: 100 % of control

Query: Same thing, different molecule: CC(=O)NC(C)C(N)=O (stereo not drawn)
Result: 108 % of control

Query: Same thing, different molecule: C[CH2][Ge]1([CH2]C)[CH2]CC2(C[CH2]1)NC(=O)N(CCCN(C)C)C2O (stereo not drawn)
Result: 96 % of control

Query: Same thing, different molecule: CC(O)C(N)C(=O)O (stereo not drawn)
Result: 107 % of control

Query: Same thing, different molecule: C=CCc1cc(Nc2c3ccc(Cl)cc3nc3ccc(OC)cc23)cc(CN(CC)CC)c1O
Result: 98 % of control

Query: Same thing, different molecule: CC12CC3(O)OC(O1)C1(COC(=O)c4ccccc4)C3CC21OC1OC(CO)C(O)C(O)C1O (stereo not drawn)
Result: 107 % of control

Query: Same thing, different molecule: CC(=O)OC1CC(n2cc(C)c(=O)[nH]c2=O)OC1COP(=O)(N1CC1(C)C)N1CC1(C)C (stereo not drawn)
Result: 112 % of control

Query: Same thing, different molecule: COC(=O)C1CCC(=O)CC1
Result: 96 % of control

Query: Same thing, different molecule: CC(=O)OCCn1c([N+](=O)[O-])cnc1/C=[N+](/[O-])CCO
Result: 111 % of control

Query: Same thing, different molecule: COC1c2ccccc2CC1(C)C (stereo not drawn)
Result: 118 % of control

Query: Same thing, different molecule: CCO/C=N/N(C)c1n[n+]([O-])ccc1C
Result: 110 % of control

* * *

- System: L1210 leukemia ip in BDF1 mice, survival T/C
- ASSAY: NCI In Vivo Anticancer Drug Screen. Data for tumor model L1210 Leukemia (intraperitoneal) in B6D2F1 (BDF1) mice
- SETUP_CONDITIONS: endpoint: mean survival time; dose: 400.0 mg/kg/injection; schedule: Q01DX001 (ip); vehicle: saline with Tween-80; higher = longer survival
Inconclusive results and toxic doses are left out.
MEASURED_ENDPOINT: T/C

Query: Which T/C value belongs to O=C1CCC([N+](=O)[O-])C(c2ccc3ccccc3c2)N1 (stereo unspecified) ?
Result: 95 % of control

Query: Same thing, different molecule: COC(=O)c1ccccc1NC(=S)NC(=O)c1ccc(Cl)cc1Cl
Result: 89 % of control

Query: Same thing, different molecule: CCOc1ccc(NC(=O)CCCCCCCCC(=O)Nc2ccc(OCC)cc2)cc1
Result: 88 % of control

Query: Same thing, different molecule: CNS(=O)(=O)c1cccc(C(N)=S)c1
Result: 100 % of control

Query: Same thing, different molecule: CCOC(=O)Nc1cc(NCC(O)CN(C)C)c([N+](=O)[O-])c(N)n1 (stereo unspecified)
Result: 101 % of control

Query: Same thing, different molecule: CCC(O)(/C(=N/Nc1ccc([N+](=O)[O-])cc1[N+](=O)[O-])c1ccccc1)c1ccccc1 (stereo unspecified)
Result: 89 % of control

* * *

- Tested on: L1210 leukemia ip in BDF1 mice, survival T/C
- ASSAY: NCI In Vivo Anticancer Drug Screen. Data for tumor model L1210 Leukemia (intraperitoneal) in B6D2F1 (BDF1) mice
- SETUP_CONDITIONS: endpoint: mean survival time; dose: 100.0 mg/kg/injection; schedule: Q04DX002 (ip); vehicle: saline with Tween-80; higher = longer survival
Toxic doses and inconclusive results are not listed.
MEASURED_ENDPOINT: T/C

Query: Which T/C value belongs to O=C1OC2C(Br)CC(Br)CC2C=C1c1ccc([N+](=O)[O-])cc1 (stereo not given) ?
Result: 90 % of control

Query: Same thing, different molecule: CC(C)NCc1ccccc1
Result: 95 % of control

Query: Same thing, different molecule: CSc1ccc(OC(=O)Nc2ccccc2C)cc1C
Result: 100 % of control

* * *

Let's look at some compounds and their measured T/C.
- Test system: L1210 leukemia ip in BDF1 mice, survival T/C
- ASSAY: NCI In Vivo Anticancer Drug Screen. Data for tumor model L1210 Leukemia (intraperitoneal) in B6D2F1 (BDF1) mice
- SETUP_CONDITIONS: endpoint: mean survival time; dose: 400.0 mg/kg/injection; schedule: Q01DX001 (ip); vehicle: Klucel (hydroxypropylcellulose) (HPC); higher = longer survival
Inconclusive results and toxic doses are left out.

Field: example entries. Status: answers known.
COMPOUND | T/C
OC(Cc1ccccc1)(c1ccc(Cl)cc1)c1ccc(Cl)cc1 | 101 % of control
CC(=O)N1CC(=O)NC1=S | 95 % of control
Cc1ccc(S(=O)(=O)n2cc[nH]c2=O)cc1 | 105 % of control
CC(CCC(=O)O)([N+](=O)[O-])[N+](=O)[O-] | 98 % of control
O=C1CC2C(=O)CC1C(C(=O)O)C2C(=O)O (configuration not stated) | 98 % of control
O=C(Nc1nccs1)C(Cl)Cl | 105 % of control

Consider the additional compound presented here.
Query: Short answer please: T/C, L1210 leukemia ip in BDF1 mice, survival T/C, entry CC(=O)Nc1nc(C=O)cc(=O)[nH]1
Result: 103 % of control

* * *

Let's look at some compounds and their measured T/C.
- Test system: L1210 leukemia ip in BDF1 mice, survival T/C
- ASSAY: NCI In Vivo Anticancer Drug Screen. Data for tumor model L1210 Leukemia (intraperitoneal) in B6D2F1 (BDF1) mice
- SETUP_CONDITIONS: endpoint: mean survival time; dose: 50.0 mg/kg/injection; schedule: Q01DX001 (ip); vehicle: saline; higher = longer survival
- Description: The antitumor activity of compounds was measured in mice bearing transplantable tumors. Survival or tumor size were measured and the results are expressed as the measurement made in the treated group (T) divided by the measurement made in the vehicle treated control group (C). The tumor model used in this assay is L1210 Leukemia (intraperitoneal) in B6D2F1 (BDF1) mice
Toxic doses and inconclusive results are not listed.

SMILES_STR | TARGET_OF_ASSAY | MEASURED_ENDPOINT | OBSERVED_RESULT
O=C(O)Cc1ccc2ccccc2c1 | L1210 leukemia ip in BDF1 mice, survival T/C | T/C | 101 % of control

Query: Which T/C value belongs to N#CCCN/N=C\c1ccc2c(c1)OCO2 ?
Result: 95 % of control

Query: Same thing, different compound: COc1ccc2[nH]c3c(C)c4ccncc4c(C)c3c2c1
Result: 98 % of control

Query: Same thing, different compound: CCCCC(CCCC)c1cc[n+](CC(=O)c2ccccc2)cc1
Result: 97 % of control

Query: Same thing, different compound: CN=C(NC)NCc1ccccc1
Result: 95 % of control
